Here the recorded pIC50 is given for each entry.
target-under-test: human Gal-1 (hGal-1)
Sequence (P09382 2-135 limits assumed): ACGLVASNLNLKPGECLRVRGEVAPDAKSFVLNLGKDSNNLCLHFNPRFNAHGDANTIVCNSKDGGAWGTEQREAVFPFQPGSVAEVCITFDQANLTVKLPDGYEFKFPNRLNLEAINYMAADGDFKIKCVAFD
test-name: Competitive binding assay: binding of biotinylated hGal-1 to microplate-adsorbed asialofetuin (ASF)
cond: Activities on hGal-1; mean values of several measurements
pIC50: −log10 of the molar value.
recorded-endpoint: pIC50

compound: CO[C@@H]1[C@@H](n2cc(-c3cc(F)c(F)c(F)c3)nn2)[C@@H](O)[C@@H](CO)O[C@@H]1Cc1cc(C2CCN(C(=O)C3CCCC3)CC2)on1
recorded-result: 6.28

compound: CN1CCC(c2cc(C[C@H]3O[C@H](CO)[C@H](O)[C@H](n4cc(-c5cc(F)c(F)c(F)c5)nn4)[C@H]3O)no2)CC1
recorded-result: 4.80

compound: CO[C@@H]1[C@@H](n2cc(-c3cc(F)c(F)c(F)c3)nn2)[C@@H](O)[C@@H](CO)O[C@@H]1Cc1cc(C2(F)CC2)no1
recorded-result: 5.81

compound: CO[C@@H]1[C@@H](n2cc(-c3cc(F)c(F)c(F)c3)nn2)[C@@H](O)[C@@H](CO)O[C@@H]1Cc1cc(C2CCN([S+]([O-])C(C)(C)C)CC2)on1 (mixture of isomers)
recorded-result: 5.52

compound: COC(=O)CO[C@@H]1[C@@H](n2cc(-c3cc(F)c(F)c(F)c3)nn2)[C@@H](O)[C@@H](CO)O[C@@H]1CC1CC(C2CCN(C(=O)OC(C)(C)C)CC2)=NO1 (mixture of isomers)
recorded-result: 5.61

----------
target-under-test: human Gal-1 (hGal-1)
test-name: Competitive binding assay: binding of biotinylated hGal-1 to microplate-adsorbed asialofetuin (ASF)
cond: Activities on hGal-1; mean values of several measurements

compound: CO[C@@H]1[C@@H](n2cc(-c3ccc(C)c(F)c3F)nn2)[C@@H](O)[C@@H](CO)O[C@@H]1Cc1cc(C(C)c2ccccc2)no1 (stereo partly drawn)
IC50, nM: 33000

compound: COc1ccc(-c2cn([C@H]3[C@@H](O)[C@@H](CO)O[C@H](CC4CC(C5CCN(C(=O)OC(C)(C)C)CC5)=NO4)[C@@H]3OC)nn2)c(F)c1F (stereo partly drawn)
IC50, nM: 960

compound: CC(C)(C)OC(=O)N1CCC(C2=NOC(C[C@H]3O[C@H](CO)[C@H](O)[C@H](n4cc(-c5cc(F)c(F)c(F)c5)nn4)[C@H]3OCC(F)F)C2)CC1 (mixture of isomers)
IC50, nM: 2960

----------
Here the recorded IC50 is given for each entry.
target-under-test: human Gal-1 (hGal-1)
test-name: Competitive binding assay: binding of biotinylated hGal-1 to microplate-adsorbed asialofetuin (ASF)
cond: Activities on hGal-1; mean values of several measurements
Description: Evaluation of Compound Inhibitory Activity (IC50) The inhibitory activity of compounds is determined in competitive binding assays. This spectrophotometric assay measures the binding of biotinylated human Gal-3 (hGal-3) or human Gal-1 (hGal-1), respectively, to a microplate-adsorbed glycoprotein, asialofetuin (ASF) (Proc Natl Acad Sci USA. 2013 Mar. 26; 110(13):5052-7.). […] The calculated IC50 values may fluctuate depending on the daily assay performance. […]

molecule: CO[C@@H]1[C@@H](n2cc(-c3ccc(C)c(F)c3F)nn2)[C@@H](O)[C@@H](CO)O[C@@H]1Cc1cc(C2(C#N)CCCC2)on1
target-under-test: human Gal-1 (hGal-1)
relation-operator: =
IC50 [nM]: 6700

molecule: Cc1c(F)cccc1-c1cn([C@H]2[C@@H](O)[C@@H](CO)O[C@H](CC3CC(C4CCN(C(=O)OC(C)(C)C)CC4)=NO3)[C@@H]2O)nn1 (stereo partly drawn)
target-under-test: human Gal-1 (hGal-1)
relation-operator: =
IC50 [nM]: 770

molecule: CO[C@@H]1[C@@H](n2cc(-c3cc(F)c(C)c(F)c3)nn2)[C@@H](O)[C@@H](CO)O[C@@H]1Cc1cc(C(C)(C)C)on1
target-under-test: human Gal-1 (hGal-1)
relation-operator: =
IC50 [nM]: 7620

molecule: CO[C@@H]1[C@@H](n2cc(-c3ccc(Br)c(F)c3F)nn2)[C@@H](O)[C@@H](CO)O[C@@H]1CC1CC(C2CCNCC2)=NO1 (stereo partly drawn)
target-under-test: human Gal-1 (hGal-1)
relation-operator: =
IC50 [nM]: 1320

molecule: COC1CCC(N2C[C@@H](C[C@H]3O[C@H](CO)[C@H](O)[C@H](n4cc(-c5cc(F)c(F)c(F)c5)nn4)[C@H]3OC)OC2=O)CC1 (mixture of isomers)
target-under-test: human Gal-1 (hGal-1)
relation-operator: =
IC50 [nM]: 12700

molecule: CO[C@@H]1[C@@H](n2cc(-c3ccc(C)c(F)c3F)nn2)[C@@H](O)[C@@H](CO)O[C@@H]1Cc1cc(-c2ccc(F)c(F)c2F)on1
target-under-test: human Gal-1 (hGal-1)
relation-operator: >
IC50 [nM]: 100000

molecule: CO[C@@H]1[C@@H](n2cc(-c3cc(F)c(Cl)c(F)c3)nn2)[C@@H](O)[C@@H](CO)O[C@@H]1Cc1cc(C2CCOCC2)on1
target-under-test: human Gal-1 (hGal-1)
relation-operator: =
IC50 [nM]: 1450

molecule: CC(=O)O[C@@H]1[C@@H](n2cc(-c3cc(F)c(F)c(F)c3)nn2)[C@@H](O)[C@@H](CO)O[C@@H]1CC1=NOC(C2CCN(C(C)=O)CC2)C1 (mixture of isomers)
target-under-test: human Gal-1 (hGal-1)
relation-operator: =
IC50 [nM]: 3990

molecule: CO[C@@H]1[C@@H](n2cc(-c3cc(F)c(F)c(F)c3)nn2)[C@@H](O)[C@@H](CO)O[C@@H]1Cc1cn(C2CCN(C(=O)OC(C)(C)C)CC2)nn1
target-under-test: human Gal-1 (hGal-1)
relation-operator: =
IC50 [nM]: 140

molecule: COc1ccc(C2=NOC(C[C@H]3O[C@H](CO)[C@H](O)[C@H](n4cc(-c5cc(F)c(F)c(F)c5)nn4)[C@H]3O)C2)cc1 (stereo partly drawn)
target-under-test: human Gal-1 (hGal-1)
relation-operator: =
IC50 [nM]: 53900

molecule: CO[C@@H]1[C@@H](n2cc(-c3ccc(F)c(F)c3F)nn2)[C@@H](O)[C@@H](CO)O[C@@H]1Cc1cc(C2(C)CC2)no1
target-under-test: human Gal-1 (hGal-1)
relation-operator: =
IC50 [nM]: 360

molecule: CO[C@@H]1[C@@H](n2cc(-c3cc(F)c(F)c(F)c3)nn2)[C@@H](O)[C@@H](CO)O[C@@H]1Cn1cc(C2(O)CCCC2)nn1
target-under-test: human Gal-1 (hGal-1)
relation-operator: =
IC50 [nM]: 2490
